- TEST_DESCRIPTION: Test for resistance to light of the recorded images (carbon arc fade meter, Blue Scale JIS L-0841)
- Type: physicochemical
- EXPERIMENTAL_PARAMETERS: ink jet print on ink jet paper A (Color BJ Paper LC 101, Canon), 20 hours carbon arc fade meter
QUANTITY_NAME: light fastness (rank) ink jet paper A

{"columns": ["COMPOUND", "light fastness (rank) ink jet paper A"],
 "data": [
  ["COCCOc1cc(N=Nc2cc(S(=O)(=O)O)cc3cc(S(=O)(=O)O)cc(O)c23)c(N)cc1N=Nc1c(S(=O)(=O)O)cc2ccc(N=Nc3cc(S(=O)(=O)O)c(N)cc3N)cc2c1O [compound 0051]", 4],
  ["O=S(=O)(O)c1cc(O)c2c(N=Nc3ccc(N=Nc4c(S(=O)(=O)O)cc5ccc(N=Nc6ccc(O)cc6O)cc5c4O)c4cc(S(=O)(=O)O)ccc34)cc(S(=O)(=O)O)cc2c1 [compound 0025]", 3],
  ["Nc1cc(N)c(S(=O)(=O)O)cc1N=Nc1ccc2cc(S(=O)(=O)O)c(N=Nc3ccc(N=Nc4cc(S(=O)(=O)O)cc5cc(S(=O)(=O)O)cc(O)c45)c4ccc(S(=O)(=O)O)cc34)c(O)c2c1 [compound 0027]", 4],
  ["COc1cc(N=Nc2cc(S(=O)(=O)O)cc3cc(S(=O)(=O)O)cc(O)c23)c(NC(C)=O)cc1N=Nc1c(S(=O)(=O)O)cc2cc(S(=O)(=O)O)c(N=Nc3ccc(N)cc3O)cc2c1O [compound 0231]", 4],
  ["COc1cc(N=Nc2cc(S(=O)(=O)O)cc3cc(S(=O)(=O)O)cc(O)c23)c(NC(C)=O)cc1N=Nc1c(S(=O)(=O)O)cc2cc(S(=O)(=O)O)c(N=Nc3ccc(O)cc3O)cc2c1O [compound 0232]", 4],
  ["COc1cc(N=Nc2cc(S(=O)(=O)O)cc3cc(S(=O)(=O)O)cc(O)c23)c(N)cc1N=Nc1c(S(=O)(=O)O)cc2cc(S(=O)(=O)O)c(N=Nc3ccc(N)cc3O)cc2c1O [compound 0264]", 4],
  ["Nc1cc2c(O)c(N=Nc3ccc(N=Nc4ccc(S(=O)(=O)[O-])cc4)c4ccc(S(=O)(=O)[O-])cc34)c(S(=O)(=O)[O-])cc2cc1S(=O)(=O)[O-].[Na+].[Na+].[Na+].[Na+] [compound 1, C.I. Food Black 2, reference compound]", 3]
]}

###

- TEST_DESCRIPTION: Test for resistance to light of the recorded images (carbon arc fade meter, Blue Scale JIS L-0841)
- Assay type: physicochemical
- EXPERIMENTAL_PARAMETERS: ink jet print on ink jet paper A (Color BJ Paper LC 101, Canon), 20 hours carbon arc fade meter
QUANTITY_NAME: light fastness (rank) ink jet paper A

{"columns": ["COMPOUND", "VALUE_REPORTED"],
 "data": [
  ["COc1cc(N=Nc2cc(S(=O)(=O)O)cc3cc(S(=O)(=O)O)cc(O)c23)c(NC(C)=O)cc1N=Nc1c(S(=O)(=O)O)cc2ccc(N=Nc3cc(S(=O)(=O)O)c(N)cc3N)cc2c1O [compound 0014]", 5],
  ["COCCOc1cc(N=Nc2cc(S(=O)(=O)O)cc3cc(S(=O)(=O)O)cc(O)c23)c(NC(C)=O)cc1N=Nc1c(S(=O)(=O)O)cc2ccc(N=Nc3ccc(N)cc3O)cc2c1O [compound 0020]", 4],
  ["COc1cc(N=Nc2cc(S(=O)(=O)O)cc3cc(S(=O)(=O)O)cc(O)c23)c(N)cc1N=Nc1c(S(=O)(=O)O)cc2ccc(N=Nc3cc(S(=O)(=O)O)c(N)cc3N)cc2c1O [compound 0048]", 4],
  ["COc1cc(N=Nc2cc(S(=O)(=O)O)cc3cc(S(=O)(=O)O)cc(O)c23)c(NC(C)=O)cc1N=Nc1c(S(=O)(=O)O)cc2ccc(N=Nc3ccc(N)cc3O)cc2c1O [compound 0011]", 4]
]}

a = COCCOc1cc(N=Nc2cc(S(=O)(=O)O)cc3cc(S(=O)(=O)O)cc(O)c23)c(NC(C)=O)cc1N=Nc1c(S(=O)(=O)O)cc2ccc(N=Nc3cc(S(=O)(=O)O)c(N)cc3N)cc2c1O [compound 0022]
b = Nc1ccc2cc(S(=O)(=O)O)c(N=Nc3ccc(N=Nc4cc(C(=O)O)cc(C(=O)O)c4)c4ccccc34)c(O)c2c1 [compound 2, reference compound]
[in] Identify the entry with the smaller light fastness (rank) ink jet paper A: a or b . Write down the label attached to your selection.
[out] b
(b: 2 rank, a: 5 rank)

###

- TEST_DESCRIPTION: Test for resistance to light of the recorded images (carbon arc fade meter, Blue Scale JIS L-0841)
- Type: physicochemical
- EXPERIMENTAL_PARAMETERS: ink jet print on plain paper (Canon TLB5A4S), 20 hours carbon arc fade meter
QUANTITY_NAME: light fastness (rank) plain paper

{"columns": ["LINE_NOTATION", "light fastness (rank) plain paper"],
 "data": [
  ["COc1cc(N=Nc2cc(S(=O)(=O)O)cc3cc(S(=O)(=O)O)cc(O)c23)c(NC(C)=O)cc1N=Nc1c(S(=O)(=O)O)cc2cc(S(=O)(=O)O)c(N=Nc3ccc(O)cc3O)cc2c1O", 4],
  ["COCCOc1cc(N=Nc2cc(S(=O)(=O)O)cc3cc(S(=O)(=O)O)cc(O)c23)c(NC(C)=O)cc1N=Nc1c(S(=O)(=O)O)cc2ccc(N=Nc3ccc(N)cc3N)cc2c1O", 5],
  ["COc1cc(N=Nc2cc(S(=O)(=O)O)cc3cc(S(=O)(=O)O)cc(O)c23)c(C)cc1N=Nc1c(S(=O)(=O)O)cc2ccc(N=Nc3cc(S(=O)(=O)O)c(N)cc3N)cc2c1O", 5],
  ["COCCOc1cc(N=Nc2cc(S(=O)(=O)O)cc3cc(S(=O)(=O)O)cc(O)c23)c(NC(C)=O)cc1N=Nc1c(S(=O)(=O)O)cc2ccc(N=Nc3cc(S(=O)(=O)O)c(N)cc3N)cc2c1O", 5],
  ["COc1cc(N=Nc2cc(S(=O)(=O)O)cc3cc(S(=O)(=O)O)cc(O)c23)c(C)cc1N=Nc1c(S(=O)(=O)O)cc2ccc(N=Nc3ccc(N)cc3N)cc2c1O", 5]
]}

###

- TEST_DESCRIPTION: Test for resistance to water of the recorded images (immersion in water, visual examination of dropout)
- Type: physicochemical
- EXPERIMENTAL_PARAMETERS: ink jet print on plain paper; immersed in water 2 minutes with mild stirring, dried
QUANTITY_NAME: water fastness plain paper

{"columns": ["COMPOUND", "VALUE_REPORTED"],
 "data": [
  ["COc1cc(N=Nc2cc(S(=O)(=O)O)cc3cc(S(=O)(=O)O)cc(O)c23)c(NC(C)=O)cc1N=Nc1c(S(=O)(=O)O)cc2ccc(N=Nc3ccc(N)cc3O)cc2c1O [compound 0011]", "Δ˜◯"],
  ["COc1cc(N=Nc2cc(S(=O)(=O)O)cc3cc(S(=O)(=O)O)cc(O)c23)c(C)cc1N=Nc1c(S(=O)(=O)O)cc2ccc(N=Nc3cc(S(=O)(=O)O)c(N)cc3N)cc2c1O [compound 0005]", "Δ˜◯"],
  ["COc1cc(N=Nc2cc(S(=O)(=O)O)cc3cc(S(=O)(=O)O)cc(O)c23)c(N)cc1N=Nc1c(S(=O)(=O)O)cc2cc(S(=O)(=O)O)c(N=Nc3ccc(N)cc3O)cc2c1O [compound 0264]", "◯"]
]}

###

Listed here: items and their measured light fastness (rank) ink jet paper A.
- TEST_DESCRIPTION: Test for resistance to light of the recorded images (carbon arc fade meter, Blue Scale JIS L-0841)
- Format: physicochemical
- EXPERIMENTAL_PARAMETERS: ink jet print on ink jet paper A (Color BJ Paper LC 101, Canon), 20 hours carbon arc fade meter

Below: 2 compounds and their reported light fastness (rank) ink jet paper A.
{"columns": ["LINE_NOTATION", "light fastness (rank) ink jet paper A"],
 "data": [
  ["COc1cc(N=Nc2cc(S(=O)(=O)O)cc3cc(S(=O)(=O)O)cc(O)c23)c(C)cc1N=Nc1c(S(=O)(=O)O)cc2ccc(N=Nc3ccc(NCC(=O)O)cc3NCC(=O)O)cc2c1O", "3-4 rank"],
  ["COc1cc(N=Nc2cc(S(=O)(=O)O)cc3cc(S(=O)(=O)O)cc(O)c23)c(C)cc1N=Nc1c(S(=O)(=O)O)cc2ccc(N=Nc3ccc(O)cc3O)cc2c1O", "3-4 rank"]
]}

[in] I am curious: what light fastness (rank) ink jet paper A value has been reported for COc1cc(N=Nc2cc(S(=O)(=O)O)cc3cc(S(=O)(=O)O)cc(O)c23)c(C)cc1N=Nc1c(S(=O)(=O)O)cc2ccc(N=Nc3cc(S(=O)(=O)O)c(N)cc3N)cc2c1O ?
[out] 4-5 rank
